target: human Kv1.3 ion channel (Homo sapiens, UniProt P22001); construct: Human Jurkat cells (which endogenously express hKv1.3) were used in place of rat L929 cells; endogenous in cells; test: Inhibition of Kv1.3 currents, planar patch clamp in human Jurkat cells; details: Jurkat cells endogenously expressing hKv1.3, averaged dose response data from 3 or more cells
Sequence (P22001 whole entry): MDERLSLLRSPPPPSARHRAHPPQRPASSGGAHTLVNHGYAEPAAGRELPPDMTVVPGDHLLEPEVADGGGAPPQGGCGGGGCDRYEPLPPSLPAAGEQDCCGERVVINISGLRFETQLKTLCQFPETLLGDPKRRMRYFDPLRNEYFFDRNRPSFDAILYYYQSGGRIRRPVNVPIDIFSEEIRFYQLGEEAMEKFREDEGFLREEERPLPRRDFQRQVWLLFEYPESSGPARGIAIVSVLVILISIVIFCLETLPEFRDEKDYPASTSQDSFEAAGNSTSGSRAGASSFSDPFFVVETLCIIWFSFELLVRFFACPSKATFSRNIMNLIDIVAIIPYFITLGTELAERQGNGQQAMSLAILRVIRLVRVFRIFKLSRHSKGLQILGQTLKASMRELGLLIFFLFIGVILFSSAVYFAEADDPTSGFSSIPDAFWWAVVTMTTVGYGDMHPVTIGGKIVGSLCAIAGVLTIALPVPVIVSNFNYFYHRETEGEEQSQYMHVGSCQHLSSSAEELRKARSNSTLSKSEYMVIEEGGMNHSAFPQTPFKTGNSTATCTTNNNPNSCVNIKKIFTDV
Each entry below carries its reported EC50.

COMPOUND | SUBJECT_OF_TEST | UNIT_LABEL | EC50
Cc1c2ccoc2c(OCCCc2ccccc2)c2oc(CN3CCOCC3)cc(=O)c12 [Example 3] | human Kv1.3 ion channel (Homo sapiens, UniProt P22001) | µM | 0.19
CN(C)Cc1cc(=O)c2c(OCCCCOc3ccccc3)c3ccoc3cc2o1 [Example 5] | human Kv1.3 ion channel (Homo sapiens, UniProt P22001) | µM | 1.42
CSCc1cc(=O)c2c(C)c3ccoc3c(OCCCc3ccccc3)c2o1 [1 c)] | human Kv1.3 ion channel (Homo sapiens, UniProt P22001) | µM | 0.03
Cc1c2ccoc2c(OCCCc2ccccc2)c2oc(CS(C)(=O)=O)cc(=O)c12 [Example 9] | human Kv1.3 ion channel (Homo sapiens, UniProt P22001) | µM | 0.2
Cc1c2ccoc2c(OCC[C@@H](C)c2ccccc2)c2oc(CN(C)C)cc(=O)c12 [8 d)] | human Kv1.3 ion channel (Homo sapiens, UniProt P22001) | µM | 0.014
Cc1c2ccoc2c(OCCCc2ccccc2)c2oc(CN(C)C)cc(=O)c12 [Example 2] | human Kv1.3 ion channel (Homo sapiens, UniProt P22001) | µM | 0.029
Cc1c2ccoc2c(OCCCc2ccc(F)cc2)c2oc(CN(C)C)cc(=O)c12 [6 c)] | human Kv1.3 ion channel (Homo sapiens, UniProt P22001) | µM | 0.028
COc1c2ccoc2c(OCCCc2ccccc2)c2oc(CN(C)C)cc(=O)c12 [7 c)] | human Kv1.3 ion channel (Homo sapiens, UniProt P22001) | µM | 0.27
